All figures here come from patent US9663478B2.

Test system: Mtb strain resistant to Ethambutol ATCC 35837
Assay: microbe, parasite or virus in culture
Assay type: cell-based, Mycobacterium tuberculosis
Settings: Mycobacterium tuberculosis, ATCC35837, read-out: MIC, Mtb strain resistant to Ethambutol ATCC 35837
Readout Kind: MIC (µg/mL)
// units = µg/mL; emit number, no label

### Prompt Form field - read-out: MIC; system: Mtb strain resistant to Ethambutol ATCC 35837; submitted item: CN(CCc1ccccc1)c1n[n+]([O-])c2cc3c(cc2[n+]1[O-])CCC3 [Compound 20u]
### Response 0.31

### Prompt Again, but for CC(C)(C)Nc1n[n+]([O-])c2ccccc2[n+]1[O-]
### Response 2.5

### Prompt And then CCNc1n[n+]([O-])c2cc3c(cc2[n+]1[O-])CCC3 [Compound 15fa] , what is it?
### Response 1.2

### Prompt Next: CN(C)c1n[n+]([O-])c2cc3c(cc2[n+]1[O-])CCC3 [Compound 20s]
### Response 0.31

### Prompt Also need CCNc1n[n+]([O-])c2cc(C)c(OC)cc2[n+]1[O-] [Compound 15ga] , thanks.
### Response 1.2

* * *

Test system: Mtb strain resistant to Ethambutol ATCC 35837
Test: microbe, parasite or virus in culture
Type: cell-based, Mycobacterium tuberculosis
Details: Mycobacterium tuberculosis, ATCC35837, read-out: MIC, Mtb strain resistant to Ethambutol ATCC 35837
Readout Kind: MIC

### Prompt Given the compound [O-][n+]1nc(N2CCCCC2)[n+]([O-])c2cc3c(cc21)CCC3 [Compound 20r] , what is its reported MIC?
### Response 0.31 µg/mL

### Prompt Lookup CN(Cc1ccccc1)c1n[n+]([O-])c2cc3c(cc2[n+]1[O-])CCC3 [Compound 20t]
### Response 0.15 µg/mL

### Prompt // next record CC1CCCCN1c1n[n+]([O-])c2cc3c(cc2[n+]1[O-])CCC3 (stereo not shown) [Compound 20w]
### Response 0.62 µg/mL

### Prompt Do the same for [O-][n+]1nc(N2CCCC2)[n+]([O-])c2ccccc21 [Compound 17q] please
### Response 0.31 µg/mL

* * *

What MIC was measured for each of the following?
Test system: Mtb strain resistant to Ethionamide ATCC 35830
Experiment: microbe, parasite or virus in culture
Assay type: cell-based, Mycobacterium tuberculosis
Settings: Mycobacterium tuberculosis, ATCC35830, read-out: Activity against Mtb strain resistant to Ethionamide ATCC 35830
Please answer using the number first and the unit second.

### Prompt Give the measured MIC of CS(=O)(=O)N1CCN(c2n[n+]([O-])c3cc4c(cc3[n+]2[O-])CCC4)CC1 [SRI-012568] .
### Response 0.62 µg/mL

### Prompt How about this molecule: CC(C)(C)Nc1n[n+]([O-])c2ccccc2[n+]1[O-] [SRI-003356]
### Response 1.25 µg/mL

### Prompt Input CCNc1n[n+]([O-])c2cc3c(cc2[n+]1[O-])CCCC3 [SRI-012496]
### Response 1.25 µg/mL

### Prompt Next molecule up: O=S1(=O)CCN(c2n[n+]([O-])c3cc4c(cc3[n+]2[O-])CCC4)CC1 [SRI-012566]
### Response 0.62 µg/mL

### Prompt Moving on to the next molecule: [O-][n+]1nc(NC2CC3CCC2C3)[n+]([O-])c2cc3c(cc21)CCCC3 (stereo not drawn) [SRI-012498]
### Response 1.25 µg/mL

### Prompt What do you get for CCN(CC)c1n[n+]([O-])c2ccccc2[n+]1[O-] [SRI-009728] ?
### Response 0.16 µg/mL

### Prompt // same read-out, input: CCNc1n[n+]([O-])c2cc3c(cc2[n+]1[O-])CCC3 [SRI-012286]
### Response 1.25 µg/mL

### Prompt Try the molecule [O-][n+]1nc(NC2CCC2)[n+]([O-])c2cc3c(cc21)CCCC3 [SRI-012497]
### Response 1.25 µg/mL

### Prompt Same question, [O-][n+]1nc(N2CCCC2)[n+]([O-])c2cc3c(cc21)CCC3 [SRI-012530] this time
### Response 0.62 µg/mL
